The reader will find reported solubility in G1/S (log2) values listed item by item below.
System: HeLa Kyoto;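 note: HeLa Kyoto cells arrested at G1/S by double thymidine block, proteins quantified by TMT10plex mass spectrometry in mild NP-40 versus SDS extracts, three biological replicates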
Assay: solubility in G1/S (NP-40 vs SDS abundance) (log2 ratio); higher = more soluble
Details: cell cycle stage: G1/S
QUANTITY_MEASURED: solubility in G1/S (log2)

- ORDERED_RESIDUES: "MKQDASRNAAYTVDCEDYVHVVEFNPFENGDSGNLIAYGGNNYVVIGTCTFQEEEADVEGIQYKTLRTFHHGVRVDGIAWSPETRLDSLPPVIKFCTSAADMKIRLFTSDLQDKNEYKVLEGHTDFINGLVFDPKEGQEIASVSDDHTCRIWNLEGVQTAHFVLHSPGMSVCWHPEETFKLMVAEKNGTIRFYDLLAQQAILSLESEQVPLMSAHWCLKNTFKVGAVAGNDWLIWDITRSSYPQNKRPVHMDRACLFRWSTISENLFATTGYPGKMASQFQIHHLGHPQPILMGSVAVGSGLSWHRTLPLCVIGGDHKLLFWVTEV [NUP37]"
  QUANTITY_MEASURED: "solubility in G1/S (log2)"
  OBSERVED_MEASUREMENT: -0.294
- ORDERED_RESIDUES: "MGAFLDKPKMEKHNAQGQGNGLRYGLSSMQGWRVEMEDAHTAVIGLPSGLESWSFFAVYDGHAGSQVAKYCCEHLLDHITNNQDFKGSAGAPSVENVKNGIRTGFLEIDEHMRVMSEKKHGADRSGSTAVGVLISPQHTYFINCGDSRGLLCRNRKVHFFTQDHKPSNPLEKERIQNAGGSVMIQRVNGSLAVSRALGDFDYKCVHGKGPTEQLVSPEPEVHDIERSEEDDQFIILACDGIWDVMGNEELCDFVRSRLEVTDDLEKVCNEVVDTCLYKGSRDNMSVILICFPNAPKVSPEAVKKEAELDKYLECRVEEIIKKQGEGVPDLVHVMRTLASENIPSLPPGGELASKRNVIEAVYNRLNPYKNDDTDSTSTDDMW [PPM1A]"
  QUANTITY_MEASURED: "solubility in G1/S (log2)"
  OBSERVED_MEASUREMENT: 0.243
- ORDERED_RESIDUES: "MNPIVVVHGGGAGPISKDRKERVHQGMVRAATVGYGILREGGSAVDAVEGAVVALEDDPEFNAGCGSVLNTNGEVEMDASIMDGKDLSAGAVSAVQCIANPIKLARLVMEKTPHCFLTDQGAAQFAAAMGVPEIPGEKLVTERNKKRLEKEKHEKGAQKTDCQKNLGTVGAVALDCKGNVAYATSTGGIVNKMVGRVGDSPCLGAGGYADNDIGAVSTTGHGESILKVNLARLTLFHIEQGKTVEEAADLSLGYMKSRVKGLGGLIVVSKTGDWVAKWTSTSMPWAAAKDGKLHFGIDPDDTTITDLP [ASRGL1]"
  QUANTITY_MEASURED: "solubility in G1/S (log2)"
  OBSERVED_MEASUREMENT: 0.282
- ORDERED_RESIDUES: "MASASGAMAKHEQILVLDPPTDLKFKGPFTDVVTTNLKLRNPSDRKVCFKVKTTAPRRYCVRPNSGIIDPGSTVTVSVMLQPFDYDPNEKSKHKFMVQTIFAPPNTSDMEAVWKEAKPDELMDSKLRCVFEMPNENDKLNDMEPSKAVPLNASKQDGPMPKPHSVSLNDTETRKLMEECKRLQGEMMKLSEENRHLRDEGLRLRKVAHSDKPGSTSTASFRDNVTSPLPSLLVVIAAIFIGFFLGKFIL [VAPA]"
  QUANTITY_MEASURED: "solubility in G1/S (log2)"
  OBSERVED_MEASUREMENT: 0.735
- ORDERED_RESIDUES: "MSASLVRATVRAVSKRKLQPTRAALTLTPSAVNKIKQLLKDKPEHVGVKVGVRTRGCNGLSYTLEYTKTKGDSDEEVIQDGVRVFIEKKAQLTLLGTEMDYVEDKLSSEFVFNNPNIKGTCGCGESFNI [ISCA1]"
  QUANTITY_MEASURED: "solubility in G1/S (log2)"
  OBSERVED_MEASUREMENT: 0.427
- ORDERED_RESIDUES: "MGNGGRSGLQQGKGNVDGVAATPTAASASCQYRCIECNQEAKELYRDYNHGVLKITICKSCQKPVDKYIEYDPVIILINAILCKAQAYRHILFNTQINIHGKLCIFCLLCEAYLRWWQLQDSNQNTAPDDLIRYAKEWDFYRMFAIAALEQTAYFIGIFTFLWVERPMTAKKKPNFILLLKALLLSSYGKLLLIPAVIWEHDYTSVCLKLIKVFVLTSNFQAIRVTLNINRKLSFLAVLSGLLLESIMVYFFQSMEWDVGSDYAIFKSQDF [ARV1]"
  QUANTITY_MEASURED: "solubility in G1/S (log2)"
  OBSERVED_MEASUREMENT: -0.481
- ORDERED_RESIDUES: "MKDVPGFLQQSQNSGPGQPAVWHRLEELYTKKLWHQLTLQVLDFVQDPCFAQGDGLIKLYENFISEFEHRVNPLSLVEIILHVVRQMTDPNVALTFLEKTREKVKSSDEAVILCKTAIGALKLNIGDLQVTKETIEDVEEMLNNLPGVTSVHSRFYDLSSKYYQTIGNHASYYKDALRFLGCVDIKDLPVSEQQERAFTLGLAGLLGEGVFNFGELLMHPVLESLRNTDRQWLIDTLYAFNSGNVERFQTLKTAWGQQPDLAANEAQLLRKIQLLCLMEMTFTRPANHRQLTFEEIAKSAKITVNEVELLVMKALSVGLVKGSIDEVDKRVHMTWVQPRVLDLQQIKGMKDRLEFWCTDVKSMEMLVEHQAHDILT [PSMD13]"
  QUANTITY_MEASURED: "solubility in G1/S (log2)"
  OBSERVED_MEASUREMENT: 0.0175
- ORDERED_RESIDUES: "MSLSDWHLAVKLADQPLTPKSILRLPETELGEYSLGGYSISFLKQLIAGKLQESVPDPELIDLIYCGRKLKDDQTLDFYGIQPGSTVHVLRKSWPEPDQKPEPVDKVAAMREFRVLHTALHSSSSYREAVFKMLSNKESLDQIIVATPGLSSDPIALGVLQDKDLFSVFADPNMLDTLVPAHPALVNAIVLVLHSVAGSAPMPGTDSSSRSMPSSSYRDMPGGFLFEGLSDDEDDFHPNTRSTPSSSTPSSRPASLGYSGAAGPRPITQSELATALALASTPESSSHTPTPGTQGHSSGTSPMSSGVQSGTPITNDLFSQALQHALQASGQPSLQSQWQPQLQQLRDMGIQDDELSLRALQATGGDIQAALELIFAGGAP [UBL7]"
  QUANTITY_MEASURED: "solubility in G1/S (log2)"
  OBSERVED_MEASUREMENT: 0.396
- ORDERED_RESIDUES: "MALDVKSRAKRYEKLDFLGEGQFATVYKARDKNTNQIVAIKKIKLGHRSEAKDGINRTALREIKLLQELSHPNIIGLLDAFGHKSNISLVFDFMETDLEVIIKDNSLVLTPSHIKAYMLMTLQGLEYLHQHWILHRDLKPNNLLLDENGVLKLADFGLAKSFGSPNRAYTHQVVTRWYRAPELLFGARMYGVGVDMWAVGCILAELLLRVPFLPGDSDLDQLTRIFETLGTPTEEQWPDMCSLPDYVTFKSFPGIPLHHIFSAAGDDLLDLIQGLFLFNPCARITATQALKMKYFSNRPGPTPGCQLPRPNCPVETLKEQSNPALAIKRKRTEALEQGGLPKKLIF [CDK7]"
  QUANTITY_MEASURED: "solubility in G1/S (log2)"
  OBSERVED_MEASUREMENT: 0.167
